Target or system P38a (Homo sapiens, UniProt Q16539); recorded quantity IC50.

- Nc1ncnc2c1c(-c1cccc(OC[C@@H]3CCCO3)c1F)cn2C1CC2(CNC(=O)O2)C1 (some centres unmarked) [Example 4]: > 10 µM

query: Look at this compound and give its reported IC50. [2H]C1([2H])C([2H])([2H])C2(COc3cccc(-c4cn([C@H]5C[C@@H](N6CC[S+]([O-])CC6)C5)c5ncnc(N)c45)c3F)OC1([2H])C([2H])([2H])C2([2H])[2H] [Example 18]
result: > 10 µM

---

pIC50 listing for selected molecules.
# tested.target: cABLT315 (Homo sapiens, UniProt P00519, T315I)
# method.description: Enzymatic kinase assay
pIC50: −log10 of the molar value.

# annotated cases, reported pIC50 shown
- CC(=O)N1CCN([C@H]2C[C@H](n3cc(-c4cc(OC[C@@H]5CCCO5)ccc4F)c4c(N)ncnc43)C2)CC1 [Example 36]: < 5.00
- Nc1ncnc2c1c(-c1cccc(OCC3CCCO3)c1F)cn2[C@H]1C[C@@H](CN2CCS(=O)(=O)CC2)C1 (mixture of isomers) [Example 1]: < 5.00

Next, consider the following molecule.
query: Look at this molecule and give its reported pIC50. [2H]C1([2H])C([2H])([2H])C2(COc3ccc(F)c(-c4cn([C@H]5C[C@@H](N6CCN(C(C)=O)CC6)C5)c5ncnc(N)c45)c3)OC1([2H])C([2H])([2H])C2([2H])[2H] [Example 10]
result: < 5.00

---

Target or system LCK (Homo sapiens); recorded quantity IC50.

# annotated cases, reported IC50 shown
• Nc1ncnc2c1c(-c1cccc(OC[C@@H]3CCCO3)c1F)cn2C1CC2(CNC(=O)O2)C1 (stereo partly drawn) [Example 4] = > 10 µM
• [2H]C1([2H])C([2H])([2H])C2(COc3ccc(F)c(-c4cn([C@H]5C[C@@H](N6CCN(C(C)=O)CC6)C5)c5ncnc(N)c45)c3)OC1([2H])C([2H])([2H])C2([2H])[2H] [Example 10] = 6.6 µM
• Nc1ncnc2c1c(-c1cc(OC[C@@H]3CCCO3)ccc1F)cn2[C@H]1C[C@@H](N2CCN(C(=O)CO)CC2)C1 [Example 40] = > 10 µM
• [2H]C1([2H])C([2H])([2H])C2(COc3cccc(-c4cn([C@H]5C[C@@H](N6CC[S+]([O-])CC6)C5)c5ncnc(N)c45)c3F)OC1([2H])C([2H])([2H])C2([2H])[2H] [Example 18] = > 10 µM
• [2H]C1([2H])C([2H])([2H])C2(COc3cccc(-c4cn([C@H]5C[C@](O)(CO)C5)c5ncnc(N)c45)c3F)OC1([2H])C([2H])([2H])C2([2H])[2H] [Example 27] = 6.6 µM

query: // lookup IC50 | system=LCK (Homo sapiens) | key= Nc1ncnc2c1c(-c1cccc(OCC3CCCO3)c1F)cn2[C@H]1C[C@@H](CN2CCS(=O)(=O)CC2)C1 (mixture of isomers) [Example 1]
result: > 10 µM

---

Target or system cMET (Homo sapiens, UniProt P08581); recorded quantity pIC50.
pIC50: −log10 of the molar value.

# annotated cases, reported pIC50 shown
• [2H]C1([2H])C([2H])([2H])C2(COc3cccc(-c4cn([C@H]5C[C@](O)(CO)C5)c5ncnc(N)c45)c3F)OC1([2H])C([2H])([2H])C2([2H])[2H] = < 5.00
• Nc1ncnc2c1c(-c1cccc(OCC3CCCO3)c1F)cn2[C@H]1C[C@@H](CN2CCS(=O)(=O)CC2)C1 (mixture of isomers) = < 5.00

Next, consider the following molecule.
query: // lookup pIC50 | system=cMET (Homo sapiens, UniProt P08581) | key= `[2H]C1([2H])C([2H])([2H])C2(COc3cccc(-c4cn([C@H]5C[C@@H](N6CC[S+]([O-])CC6)C5)c5ncnc(N)c45)c3F)OC1([2H])C([2H])([2H])C2([2H])[2H]`
result: < 5.00

Data credit: patent US20130338152A1
